- assay.target: MAP kinase-interacting serine/threonine-protein kinase 1 (Homo sapiens, UniProt Q9BUB5)
- Sequence (Q9BUB5 whole entry, the tested form may be a part): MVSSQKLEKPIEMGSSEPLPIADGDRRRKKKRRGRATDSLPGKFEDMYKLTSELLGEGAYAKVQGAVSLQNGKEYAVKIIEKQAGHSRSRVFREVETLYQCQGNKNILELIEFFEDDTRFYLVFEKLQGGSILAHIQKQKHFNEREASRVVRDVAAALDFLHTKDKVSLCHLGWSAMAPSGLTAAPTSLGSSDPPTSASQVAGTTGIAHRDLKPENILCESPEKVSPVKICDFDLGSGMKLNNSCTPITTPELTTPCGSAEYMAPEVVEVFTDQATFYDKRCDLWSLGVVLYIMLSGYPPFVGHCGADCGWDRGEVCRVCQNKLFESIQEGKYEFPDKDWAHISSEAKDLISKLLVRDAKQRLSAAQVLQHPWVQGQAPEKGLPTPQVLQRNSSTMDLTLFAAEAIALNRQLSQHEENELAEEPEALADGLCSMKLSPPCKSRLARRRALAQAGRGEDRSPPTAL
- protocol.summary: Inhibition of recombinant human N-terminal DYKDDDDK-tagged MNK1(1 to 424 residues) expressed in baculovirus expression system using TATKSGSTTKNR as substrate preincubated for 10 mins followed by ATP addition and measured after 40 mins by luminescence based assay
quantity.name: IC50 (nM)

• Cc1cc(Nc2cn(C)nc2N)c(=O)n2c1C(=O)NC21CCCCC1 = 479
• Cc1cc(Nc2cc(N3CCN(CCN(C)C)CC3)ncn2)c(=O)n2c1C(=O)NC21CCCCC1 = 8.7
• Cc1cc(Nc2cc(N3CCN(CCCN(C)C)CC3)ncn2)c(=O)n2c1C(=O)NC21CCCCC1 = 7

====

- assay.target: MAP kinase-interacting serine/threonine-protein kinase 1 (Homo sapiens, UniProt Q9BUB5)
- protocol.summary: Inhibition of recombinant human N-terminal DYKDDDDK-tagged MNK1(1 to 424 residues) expressed in baculovirus expression system using TATKSGSTTKNR as substrate preincubated for 10 mins followed by ATP addition and measured after 40 mins by luminescence based assay
Lab note - cut at 100 nM for IC50: fulfilled if strictly below, not fulfilled if not.

• Cc1cc(Nc2ccnc(N)n2)c(=O)n2c1C(=O)NC21CCCCC1 = not fulfilled
• Cc1cc(Nc2ccccn2)c(=O)n2c1C(=O)NC21CCCCC1 = not fulfilled
• Cc1cc(Nc2cc(NC3CCNCC3)ncn2)c(=O)n2c1C(=O)NC21CCCCC1 = fulfilled
• Cc1cc(Nc2cc(N3CCC(N)CC3)ncn2)c(=O)n2c1C(=O)NC21CCCCC1 = not fulfilled
• Cc1cc(Nc2nccc(N)n2)c(=O)n2c1C(=O)NC21CCCCC1 = not fulfilled
• Cc1cc(Nc2ccnc(N)c2)c(=O)n2c1C(=O)NC21CCCCC1 = fulfilled
• Cc1cc(Nc2cc(N3CCN(C)CC3)ncn2)c(=O)n2c1C(=O)NC21CCCCC1 = fulfilled
• Cc1cc(Nc2cc(C)c3n(c2=O)C2(CCCCC2)NC3=O)ccn1 = not fulfilled
• Cc1cc(Nc2cc(N)ccn2)c(=O)n2c1C(=O)NC21CCCCC1 = not fulfilled
• Cc1cc(Nc2ncccn2)c(=O)n2c1C(=O)NC21CCCCC1 = not fulfilled

====

Items are presented alongside their recorded inhibition.
- assay.target: MAP kinase-interacting serine/threonine-protein kinase 2 (Homo sapiens, UniProt Q9HBH9)
- Sequence (Q9HBH9 whole entry, looked up): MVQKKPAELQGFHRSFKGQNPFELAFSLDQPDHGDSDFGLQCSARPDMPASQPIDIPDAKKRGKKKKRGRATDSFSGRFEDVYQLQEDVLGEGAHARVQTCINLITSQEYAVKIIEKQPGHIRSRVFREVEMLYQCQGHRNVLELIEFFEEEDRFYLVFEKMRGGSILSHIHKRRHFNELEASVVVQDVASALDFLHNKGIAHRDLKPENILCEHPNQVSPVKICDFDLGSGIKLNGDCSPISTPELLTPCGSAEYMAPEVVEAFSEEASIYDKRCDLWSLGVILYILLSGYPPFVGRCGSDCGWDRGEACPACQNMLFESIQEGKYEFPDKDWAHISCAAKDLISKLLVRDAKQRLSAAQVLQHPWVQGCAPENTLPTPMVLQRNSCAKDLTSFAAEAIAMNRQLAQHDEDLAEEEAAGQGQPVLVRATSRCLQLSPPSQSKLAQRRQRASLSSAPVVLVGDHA
- protocol.summary: Inhibition of MNK2 (unknown origin) at 100 nM incubated for 60 mins by HTRF assay
quantity.name: inhibition

• CC(=O)N1CCN(c2cc(Nc3cc(C)c4n(c3=O)C3(CCCCC3)NC4=O)ncn2)CC1 = 86.9%
• Cc1cccc(Nc2cc(C)c3n(c2=O)C2(CCCCC2)NC3=O)n1 = 13.4%
• Cc1cc(Nc2cc(NC3CCNCC3)ncn2)c(=O)n2c1C(=O)NC21CCCCC1 = 75.8%
• Cc1cc(Nc2ccnc(N)n2)c(=O)n2c1C(=O)NC21CCCCC1 = 66.3%
• Cc1cc(Nc2cc(N3CCOCC3)ncn2)c(=O)n2c1C(=O)NC21CCCCC1 = 35.5%
• Cc1cc(Nc2cccnn2)c(=O)n2c1C(=O)NC21CCCCC1 = 23.9%
• Cc1cc(Nc2cc(N)ncn2)c(=O)n2c1C(=O)NC21CCCCC1 = 98.8%
• Cc1cccnc1Nc1cc(C)c2n(c1=O)C1(CCCCC1)NC2=O = 23%
• Cc1cc(Nc2cc(N3CCCCC3)ncn2)c(=O)n2c1C(=O)NC21CCCCC1 = 50.3%
• Cc1cc(Nc2cc(N)ccn2)c(=O)n2c1C(=O)NC21CCCCC1 = 30.8%
• Cc1cc(Nc2ccncc2)c(=O)n2c1C(=O)NC21CCCCC1 = 88.3%
• Cc1cc(Nc2ncccn2)c(=O)n2c1C(=O)NC21CCCCC1 = 18.9%
